# experimentalProtocol: in vivo
# protocolConditions: male, rat, in vivo
# Description: DAI in the form of a suspension in saline was administered to the rats at the doses of 20 mg/kg (i.v.) and 50 mg/kg (i.p.). The second study was conducted in 48 animals to assess DAI tissue penetration and bioavailability. […] PK parameters were calculated using a non-compartmental approach from the average concentration values, using Phoenix WinNonlin software (Certara, St. Louis, MO, USA). […] Mean residence time (MRT) was calculated as (3) MRT=AUMC0→t/AUC0→t
readoutLabel: bioavailability (%)
Numeric answer only, unit % assumed.

Request: Consider the molecule O=c1c(-c2ccc(O)cc2)coc2cc(O)ccc12 and give its measured bioavailability.
Result: 28.2

* * *

# experimentalProtocol: in vivo
# protocolConditions: rat, iv, 20 mg/kg
readoutLabel: AUC
Provide the measurement as a number trailed by its unit.

Request: Consider the molecule O=c1c(-c2ccc(O)cc2)coc2cc(O)ccc12 and give its measured AUC.
Result: 1580 ng·h/mL

* * *

# experimentalProtocol: in vivo
# protocolConditions: male, rat, in vivo, ip, 50 mg/kg
readoutLabel: Vd/F (L/kg)
Numeric answer only, unit L/kg assumed.

Request: Consider the molecule O=c1c(-c2ccc(O)cc2)coc2cc(O)ccc12 and give its measured Vd/F.
Result: 220

* * *

# experimentalProtocol: in vivo
# protocolConditions: rat, iv, 20 mg/kg
readoutLabel: half-life (h)
Numeric answer only, unit h assumed.

Request: Consider the molecule O=c1c(-c2ccc(O)cc2)coc2cc(O)ccc12 and give its measured half-life.
Result: 3.83

* * *

# experimentalProtocol: in vivo
# protocolConditions: male, rat, in vivo, ip, 50 mg/kg, Cmax
readoutLabel: Cmax (ng/mL)
Numeric answer only, unit ng/mL assumed.

Request: Consider the compound O=c1c(-c2ccc(O)cc2)coc2cc(O)ccc12 and give its measured Cmax.
Result: 173

* * *

# experimentalProtocol: in vivo
# protocolConditions: rat, iv, 20 mg/kg
readoutLabel: C0 (ng/mL)
Numeric answer only, unit ng/mL assumed.

Request: Consider the compound O=c1c(-c2ccc(O)cc2)coc2cc(O)ccc12 [DAI in Suspension] and give its measured C0.
Result: 6160

* * *

# experimentalProtocol: in vivo
# protocolConditions: male, rat, in vivo, ip, 50 mg/kg
readoutLabel: CL/F (mL/min/kg)
Numeric answer only, unit mL/min/kg assumed.

Request: Consider the compound O=c1c(-c2ccc(O)cc2)coc2cc(O)ccc12 and give its measured CL/F.
Result: 775

* * *

# experimentalProtocol: in vivo
# protocolConditions: male, rat, in vivo, ip, 50 mg/kg
readoutLabel: AUC (ng·h/mL)
Numeric answer only, unit ng·h/mL assumed.

Request: Consider the compound O=c1c(-c2ccc(O)cc2)coc2cc(O)ccc12 [DAI in Suspension] and give its measured AUC.
Result: 1110

* * *

# experimentalProtocol: in vivo
# protocolConditions: male, rat, in vivo, ip, 50 mg/kg, tmax, DAI in suspension, i.p. 50 mg/kg, rat serum
readoutLabel: tmax

Request: Consider the compound O=c1c(-c2ccc(O)cc2)coc2cc(O)ccc12 [DAI in Suspension] and give its measured tmax.
Result: ≤ 45 min

Reference source: paper PMC7076374
